Assay: Phase 1 study, MAD cohorts: plasma pharmacokinetics
Type: in vivo, human
Settings: both sexes, human, plasma, oral, healthy subjects, MAD; read-out: steady-state t1/2
observable: half-life

{"molecule": "N#Cc1cccc(C#N)c1-c1c(-c2cccc(-c3ccc(C(=O)NCC(=O)O)cc3Cl)c2)n(S(=O)(=O)c2ccc(C(F)F)cc2)c2ccc(F)cc12 [Compound 21/3]", "observable": "half-life", "readout-value": "84 to 156 min"}

* * *

Test: Phase 1 study, MAD cohorts: plasma pharmacokinetics
Assay type: in vivo, human
Details: both sexes, human, plasma, oral, 2 mg, healthy subjects, MAD Day 14, 2 mg, fed; mean

{"compound": "N#Cc1cccc(C#N)c1-c1c(-c2cccc(-c3ccc(C(=O)NCC(=O)O)cc3Cl)c2)n(S(=O)(=O)c2ccc(C(F)F)cc2)c2ccc(F)cc12 [Compound 21/3]", "unit-abbreviation": "ng·h/mL", "AUC": 2.7}

* * *

Molecular target: LXRβ (Homo sapiens)
Assay: LXR Gal4 reporter transient transfection assay (mammalian two-hybrid, HEK293), LXRβ
Assay type: cell-based
Conditions: HEK293, NCOR recruitment, mean ± SD; read-out: HEK293 LXRβ/NCOR recruitment (M2H) EC50
observable: EC50 (nM)

{"structure": "N#Cc1cccc(C#N)c1-c1c(-c2cccc(-c3ccc(C(=O)O)cc3Cl)c2)n(S(=O)(=O)c2ccc(C(F)F)cc2)c2ccc(F)cc12", "observable": "EC50", "unit-abbreviation": "nM", "readout-value": 0.4}
{"structure": "N#Cc1cccc(C#N)c1-c1c(-c2cccc(-c3ccc(C(=O)NCC(=O)O)cc3Cl)c2)n(S(=O)(=O)c2ccc(C(F)F)cc2)c2ccc(F)cc12", "observable": "EC50", "unit-abbreviation": "nM", "readout-value": 11}

* * *

Measured pEC50, listed per entry for reference.
Target: GST-LXRβ ligand-binding domain (Homo sapiens, UniProt P55055)
Construct: amino acids 156-461; NP009052
Sequence (P55055 156-460 limits assumed): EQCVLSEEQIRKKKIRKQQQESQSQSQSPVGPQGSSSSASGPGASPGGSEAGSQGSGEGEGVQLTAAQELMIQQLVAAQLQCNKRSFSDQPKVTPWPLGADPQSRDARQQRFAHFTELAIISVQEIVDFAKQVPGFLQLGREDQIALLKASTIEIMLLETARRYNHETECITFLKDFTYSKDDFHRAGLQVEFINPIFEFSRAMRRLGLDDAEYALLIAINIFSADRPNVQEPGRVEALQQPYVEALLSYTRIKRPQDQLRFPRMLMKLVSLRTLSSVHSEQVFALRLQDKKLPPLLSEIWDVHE
Assay: TR-FRETβ activity assay (NCoA3 coactivator peptide recruitment)
Details: 1 μM 24(S)-25-epoxycholesterol prestimulation
Protocol: Recombinant GST-LXRβ ligand-binding domain (LBD; amino acids 156-461; NP009052; SEQ ID NO:4) was expressed in E. coli and purified via gluthatione-sepharose affinity chromatography. […] The reaction was mixed thoroughly, equilibrated for 1 h at 4° C. and vicinity of LXRβ and coactivator peptide was detected by measurement of fluorescence in a VictorX4 multiplate reader (PerkinElmer Life Science) using 340 nm as excitation and 615 and 665 nm as emission wavelengths. […]
pEC50: −log10 of the molar value.

{"compound": "O=C(O)c1ccc(-c2cccc(-c3c(-c4cccc5nncn45)c4cc(F)ccc4n3S(=O)(=O)c3ccc(C(F)F)cc3)c2)c(Cl)c1 [11/43]", "tested-on": "GST-LXRβ ligand-binding domain (Homo sapiens, UniProt P55055)", "pEC50": "6.00 to 7.00"}
{"compound": "N#Cc1sccc1-c1c(-c2cccs2)n(S(=O)(=O)c2ccc(Cl)cc2)c2ccccc12 [20/13]", "tested-on": "GST-LXRβ ligand-binding domain (Homo sapiens, UniProt P55055)", "pEC50": "6.00 to 7.00"}
{"compound": "Cc1ccc(S(=O)(=O)n2c(-c3cccc(-c4ccc(C(=O)O)cc4)c3)c(-c3ccsc3C#N)c3cc(F)ccc32)cc1C [23/2]", "tested-on": "GST-LXRβ ligand-binding domain (Homo sapiens, UniProt P55055)", "pEC50": "6.00 to 7.00"}
{"compound": "N#Cc1sccc1-c1c(-c2cccc(N3CC(C(=O)O)C3)c2)n(S(=O)(=O)c2ccc(OC(F)F)cc2)c2ccc(F)cc12 [3/11]", "tested-on": "GST-LXRβ ligand-binding domain (Homo sapiens, UniProt P55055)", "pEC50": "5.00 to 6.00"}
{"compound": "N#Cc1sccc1-c1c(-c2cccc(-c3ccc(C(=O)O)cc3Cl)c2)n(S(=O)(=O)c2ccc(C(F)F)nc2)c2ccc(F)cc12 [11/57]", "tested-on": "GST-LXRβ ligand-binding domain (Homo sapiens, UniProt P55055)", "pEC50": "> 7.00"}
{"compound": "Cc1ccc(S(=O)(=O)n2c(-c3cccc(-c4ccc(CN5CCN(C)CC5)cc4)c3)c(-c3ccsc3C#N)c3cc(F)ccc32)cc1 [Compound 8]", "tested-on": "GST-LXRβ ligand-binding domain (Homo sapiens, UniProt P55055)", "pEC50": "6.00 to 7.00"}
{"compound": "Cc1ccc(S(=O)(=O)n2c(-c3cccc(-c4cc(F)c(C(=O)O)cc4Cl)c3)c(-c3ccsc3C#N)c3cc(F)ccc32)cc1 [12/2]", "tested-on": "GST-LXRβ ligand-binding domain (Homo sapiens, UniProt P55055)", "pEC50": "6.00 to 7.00"}
{"compound": "Cc1ccc(S(=O)(=O)n2c(-c3cccc(-c4ccc(C(=O)O)cc4Cl)c3)c(-c3ccccc3C#N)c3cc(F)ccc32)cc1 [Compound 11]", "tested-on": "GST-LXRβ ligand-binding domain (Homo sapiens, UniProt P55055)", "pEC50": "> 7.00"}
{"compound": "N#Cc1sccc1-c1c(-c2cccc(N3CC(C(=O)O)C3)c2)n(S(=O)(=O)c2ccc(Cl)cc2)c2ccccc12 [30/7]", "tested-on": "GST-LXRβ ligand-binding domain (Homo sapiens, UniProt P55055)", "pEC50": "6.00 to 7.00"}
{"compound": "Cn1ccc(-c2c(-c3cccc(-c4ccc(C(=O)O)cc4Cl)c3)n(S(=O)(=O)c3ccc(C(F)F)cc3)c3ccc(F)cc23)c1C#N [11/68]", "tested-on": "GST-LXRβ ligand-binding domain (Homo sapiens, UniProt P55055)", "pEC50": "> 7.00"}
{"compound": "Cc1n[nH]c(C)c1-c1c(-c2cccc(-c3ccc(C(=O)O)cc3Cl)c2)n(S(=O)(=O)c2ccc(C(F)F)cc2)c2ccc(F)cc12 [11/24]", "tested-on": "GST-LXRβ ligand-binding domain (Homo sapiens, UniProt P55055)", "pEC50": "6.00 to 7.00"}
{"compound": "N#Cc1sccc1-c1c(-c2cccc(N3CC(C(=O)O)C3)c2)n(S(=O)(=O)c2ccc3c(c2)CCC3)c2ccc(F)cc12 [3/12]", "tested-on": "GST-LXRβ ligand-binding domain (Homo sapiens, UniProt P55055)", "pEC50": "6.00 to 7.00"}
{"compound": "N#Cc1sccc1-c1c(-c2ccc(C3CC3C(=O)O)s2)n(S(=O)(=O)c2ccc(Cl)cc2)c2ccccc12 (centres unmarked) [30/8]", "tested-on": "GST-LXRβ ligand-binding domain (Homo sapiens, UniProt P55055)", "pEC50": "5.00 to 6.00"}
{"compound": "Cn1cnc(S(=O)(=O)n2c(-c3cccc(C4CC4C(=O)O)c3)c(-c3ccsc3C#N)c3ccccc32)c1 (centres unmarked) [30/10]", "tested-on": "GST-LXRβ ligand-binding domain (Homo sapiens, UniProt P55055)", "pEC50": "< 5.00"}

* * *

Experiment: Phase 1 study, MAD cohorts: plasma pharmacokinetics
Format: in vivo, human
Settings: both sexes, human, plasma, oral, healthy subjects, Phase 1 summary (SAD and MAD)
Description: A double-blind, placebo-controlled, single- and multiple-ascending dose FIH Phase 1 study to evaluate the safety, tolerability, PK, and PD of Compound 21/3 in healthy adult subjects was performed. […] Intensive PK sampling over 72 h postdose on Day 1 (SAD and MAD) and Day 14 (MAD) was performed. Compound 21/3 plasma concentrations were determined using validated liquid chromatography-tandem mass spectrometry assay. […]
observable: Tmax

{"structure": "N#Cc1cccc(C#N)c1-c1c(-c2cccc(-c3ccc(C(=O)NCC(=O)O)cc3Cl)c2)n(S(=O)(=O)c2ccc(C(F)F)cc2)c2ccc(F)cc12", "readout-value": "2 to 4 h"}

* * *

Molecular target: GST-LXRβ ligand-binding domain (Homo sapiens)
Construct: amino acids 156-461; NP009052
Experiment: TR-FRETβ activity assay (NCoA3 coactivator peptide recruitment)
Conditions: 1 μM 24(S)-25-epoxycholesterol prestimulation
pEC50: −log10 of the molar value.

{"molecule": "Cc1ccc(S(=O)(=O)n2c(-c3ccc(CC(C)(C)C(=O)O)s3)c(-c3ccsc3C#N)c3ccccc32)cc1", "pEC50": "5.00 to 6.00"}
{"molecule": "Cc1ccc(S(=O)(=O)n2c(-c3cccc(-c4cc(C(=O)O)nn4C)c3)c(-c3ccsc3C#N)c3cc(F)ccc32)cc1", "pEC50": "6.00 to 7.00"}
{"molecule": "Cc1ccc(S(=O)(=O)n2c(-c3cccc(C4CC4C(=O)O)c3)c(-c3ccc(F)cc3C#N)c3ccccc32)cc1 (stereo not shown)", "pEC50": "5.00 to 6.00"}
{"molecule": "N#Cc1scnc1-c1c(-c2cccc(-c3cc(F)c(C(=O)O)cc3Cl)c2)n(S(=O)(=O)c2ccc(C(F)F)cc2)c2ccc(F)cc12", "pEC50": "> 7.00"}
{"molecule": "Cc1cccc(C#N)c1-c1c(-c2cccc(-c3ccc(C(=O)O)cc3Cl)c2)n(S(=O)(=O)c2ccc(C(F)F)cc2)c2ccc(F)cc12 [11/36]", "pEC50": "> 7.00"}
{"molecule": "Cc1ccc(S(=O)(=O)n2c(-c3cc(N4CC(C(=O)O)C4)ccc3F)c(-c3ccsc3C#N)c3cc(F)ccc32)cc1", "pEC50": "5.00 to 6.00"}
{"molecule": "Cc1ccc(S(=O)(=O)n2c(-c3cccc(N4CC(C(=O)O)C4)c3)c(-c3ccsc3C(F)(F)F)c3cc(F)ccc32)cc1", "pEC50": "6.00 to 7.00"}
{"molecule": "N#Cc1cccc(C#N)c1-c1c(-c2cccc(-c3ccc(C(=O)O)cc3Cl)c2)n(S(=O)(=O)c2ccc(C(F)F)cc2)c2cnc(O)cc12", "pEC50": "6.00 to 7.00"}
{"molecule": "N#Cc1cccc(C#N)c1-c1c(-c2cccc([C@H]3CC[C@H](C(=O)O)CC3)c2)n(S(=O)(=O)c2ccc(C(F)F)cc2)c2ccc(F)cc12", "pEC50": "6.00 to 7.00"}
{"molecule": "Cc1ccc(S(=O)(=O)n2c(-c3cccc(-c4ccc(C(=O)NCCS(=O)(=O)O)cc4Cl)c3)c(-c3ccsc3C#N)c3cc(F)ccc32)cc1", "pEC50": "6.00 to 7.00"}
{"molecule": "Cc1ccc(S(=O)(=O)n2c(-c3cccc(N4CC(C(=O)O)C4)c3)c(-c3ccsc3C#N)c3cc(Cl)ccc32)cc1", "pEC50": "5.00 to 6.00"}
{"molecule": "N#Cc1cccnc1-c1c(-c2cccc(-c3ccc(C(=O)O)cc3Cl)c2)n(S(=O)(=O)c2ccc(C(F)F)cc2)c2ccc(F)cc12", "pEC50": "> 7.00"}
{"molecule": "Cc1ccc(S(=O)(=O)n2c(-c3cccc(-c4cncc(S(=O)(=O)CC(=O)O)c4)c3)c(-c3ccsc3C#N)c3ccccc32)cc1", "pEC50": "6.00 to 7.00"}
